- MEASUREMENT TARGET: T1, Anti-CD28 scFv (VH-linker 1-VL) (biotinylated (site not stated))
- T1 construct: biotinylated and captured on neutravidin coated plates in the phage ELISA
- T1 sequence (scFv, as listed by the source): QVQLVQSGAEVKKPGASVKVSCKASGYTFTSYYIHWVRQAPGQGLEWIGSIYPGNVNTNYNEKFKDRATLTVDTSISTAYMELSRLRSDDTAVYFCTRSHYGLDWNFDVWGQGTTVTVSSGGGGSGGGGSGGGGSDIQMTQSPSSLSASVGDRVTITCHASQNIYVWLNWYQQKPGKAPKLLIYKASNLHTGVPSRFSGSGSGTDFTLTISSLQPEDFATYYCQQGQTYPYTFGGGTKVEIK
- ASSAY OVERVIEW: phage ELISA, scFv wells pre-incubated with soluble CD28 (competitor); background signal 0.079
VALUE TYPE: Phage binding ELISA CD28 scFv signal in presence of CD28
Just the number, please.

Consider the worked cases shown below.
{"BINDER": "MDWCPRYLWNECFY (label printed as Phage-56 between Phage-65 and Phage-67, probably Phage-66) [Phage-56 (second entry so labelled, SEQ ID NO: 255)]", "READOUT VALUE": 0.358}
{"BINDER": "MDWCPRFMWDECFN [Phage-33]", "READOUT VALUE": 0.256}
{"BINDER": "MVSCPTTMWNRCFN [Phage-61]", "READOUT VALUE": 0.072}

Reported Phage binding ELISA CD28 scFv signal in presence of CD28, binder MHWCPVDLWYLCYN [Phage-37] : ____ 0.417
